The values you see were collected from PubChem BioAssay (NCI).

# Tested on: HCT-116 colon
# assay.name: NCI tumour cell line growth inhibition, 48 h
The reader will find reported TGI values listed item by item below.
measurement.label: TGI

- compound: "NC(=O)NC(=O)c1cccc(NC(=O)CI)c1"
  result: "0.106 µM"
- compound: "Cc1cnc(Cl)nc1C(C#N)c1nc2ccccc2s1 (stereo unspecified)"
  result: "38.2 µM"
- compound: "C=C1C[C@@H](O)[C@@H](Br)C(C)(C)[C@@]12C=CC(O)(CBr)CC2 (stereo partly specified)"
  result: "> 100 µM"
- compound: "COC(=O)[C@@]12CCCC(=O)[C@@H]1[C@H]1CCC[C@H]12"
  result: "> 100 µM"
- compound: "N#CC(C#N)N=Nc1ccc(-c2nc3ccccc3[nH]2)cc1"
  result: "43.2 µM"
- compound: "COc1ccc2nc3cccc([N+](=O)[O-])c3c(NCCN(C)C)c2c1"
  result: "0.115 µM"

----------
# Tested on: MOLT-4 leukemia
# assay.name: NCI tumour cell line growth inhibition, 48 h; in the data active means GI50 below about 0.43 µM; inactive means the rest
Labels: 1.0 for active, 0.0 for inactive

- compound: "C[C@H](O)CNc1cc(-c2[nH]c3cccnc3c2-c2ccc(F)cc2)ccn1"
  assigned.category: 0.0
- compound: "CCOC(=O)c1ccc2[nH]c(O)c(C(=Nc3ccc(N(C)C(=O)CN4CCN(C)CC4)cc3)c3ccccc3)c2c1"
  assigned.category: 1.0
- compound: "COc1ccc2c(c1)OCC1c3cc(O)ccc3OC21 (stereo not drawn)"
  assigned.category: 0.0
- compound: "CCCN1C(=O)/C(=C/c2cccc(O)c2)SC1=Nc1ccccc1"
  assigned.category: 0.0
- compound: "CCN(CC)CCOc1nc2c3ccc(Cl)cc3nn2c2ccccc12"
  assigned.category: 0.0
- compound: "CC(C)OP(=O)(OC(C)C)C([CH2][Sn]([CH3])([CH3])[Cl])P(=O)(OC(C)C)OC(C)C"
  assigned.category: 0.0
- compound: "O=C1/C(=C/c2ccc(O)c(O)c2)COc2ccc(-c3ccccc3)cc21"
  assigned.category: 0.0
- compound: "CN1C(=O)N(C)C2C1NN=c1s/c(=C\\c3ccccc3F)c(=O)n12 (stereo not drawn)"
  assigned.category: 0.0
- compound: "COc1cc(-c2cc(/C=C/C(=O)c3ccc(N)cc3)[nH]n2)cc(OC)c1OC"
  assigned.category: 0.0
- compound: "OCC#Cc1ccccc1C#CCCCCCCC#Cc1ccccc1C#CCO"
  assigned.category: 0.0
- compound: "Cc1cc(C(=O)NC(C)(C)C)cc(C#Cc2ccc3c4c(oc3c2)C(C)(C)c2cc(NS(C)(=O)=O)ccc2C4=O)n1"
  assigned.category: 0.0
- compound: "C/C=C(\\C)C(=O)O[C@H]1C=CC(=O)O[C@H]1CC[C@H](O)[C@H](C)O"
  assigned.category: 0.0
- compound: "CC(C)CCC[C@@H](C)[C@H]1CCC2C3=CCn4c(=O)ccc(=O)n4C3CC[C@@]21C (stereo partly drawn)"
  assigned.category: 0.0

----------
# Tested on: SK-MEL-5 melanoma
# assay.name: NCI tumour cell line growth inhibition, 48 h
The reader will find reported GI50 values listed item by item below.

- molecule: "Clc1ccc(N2CCN(CCCN3CCN(c4cccc(Cl)c4)CC3)CC2)cc1"
  GI50: "1600 nM"
- molecule: "CCOc1ccc2nc(S/C(=C/C=C(C#N)C#N)c3ccc(Cl)cc3)sc2c1"
  GI50: "1760 nM"
- molecule: "C[C@H](O)CNc1cc(-c2[nH]c3cccnc3c2-c2ccc(F)cc2)ccn1"
  GI50: "10300 nM"
- molecule: "O=C(COc1cccc(/C=C2/Oc3ccccc3C2=O)c1)Nc1nccs1"
  GI50: "16400 nM"
- molecule: "CCCN1C(=O)/C(=C/c2cccc(O)c2)SC1=Nc1ccccc1"
  GI50: "19600 nM"
- molecule: "O=C1/C(=C/c2ccc(O)c(O)c2)COc2ccc(-c3ccccc3)cc21"
  GI50: "1570 nM"
- molecule: "CC(C)OP(=O)(OC(C)C)C([CH2][Sn]([CH3])([CH3])[Cl])P(=O)(OC(C)C)OC(C)C"
  GI50: "16500 nM"
- molecule: "CC(=O)CC(=O)Nc1c(C)[c]([Hg][O]C(C)=O)c(C)[c]([Hg][O]C(C)=O)[c]1[Hg][O]C(C)=O"
  GI50: "2990 nM"
- molecule: "NCCCCCCn1c2c(c3ccccc3c1=O)C(=O)c1ccccc1-2"
  GI50: "1300 nM"
- molecule: "CN1CCN(c2ccc(N3Cc4ccccc4OC4=C3C(=O)c3c(O)ccc(O)c3C4=O)cn2)CC1"
  GI50: "1270 nM"
- molecule: "CCOC(=O)C1=C(N)CCC1C (configuration not stated)"
  GI50: "> 100000 nM"
- molecule: "COc1ccc2c(c1)CCC1C2CCC2(C)C3=CC(O)CCC3CC12 (configuration not stated)"
  GI50: "11700 nM"
